// values below are reported solubility
# PROCEDURE SUMMARY: Aqueous solubility
# Format: physicochemical
# COND: water, not marked as free base, read-out: Aqueous Solubility
Structures can show the parent of a compound that is named as a salt.

Take a look at these entries with their results.
- COMPOUND: "COc1ccc(CN2CCN(S(=O)(=O)CCCOc3ccc4nc5[nH]c(=O)[nH]c5cc4c3)CC2)cc1 [Compound 10f, dihydrochloride]"
  solubility: "> 20 mg/mL"
- COMPOUND: "Cl.Cl.O=c1[nH]c2cc3cc(OCCCS(=O)(=O)N4CCN(Cc5ccc(F)cc5)CC4)ccc3nc2[nH]1 [Compound 10d]"
  solubility: "> 20 mg/mL"
- COMPOUND: "Cl.Cl.O=c1[nH]c2cc3cc(OCCCS(=O)(=O)N4CCN(Cc5ccc(Cl)cc5)CC4)ccc3nc2[nH]1 [Compound 10e]"
  solubility: "> 20 mg/mL"
- COMPOUND: "Cl.Cl.O=c1[nH]c2cc3cc(OCCCS(=O)(=O)N4CCN(Cc5cccc(C(F)(F)F)c5)CC4)ccc3nc2[nH]1 [Compound 10m]"
  solubility: "~2 mg/mL"

Please find the next compound below.
In: What value of solubility has been reported for the following compound? Cl.Cl.O=c1[nH]c2cc3cc(OCCCS(=O)(=O)N4CCN(CCC5CCCCC5)CC4)ccc3nc2[nH]1 [Compound 10j]
Out: < 5 mg/mL
